Reference source: paper PMC7156458

- assayed-system: Aβ42 (Homo sapiens)
- Sequence (P05067 672-713): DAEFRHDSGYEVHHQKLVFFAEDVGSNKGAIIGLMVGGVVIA
- assay-summary: Th-T (thioflavin-T) assay of Aβ42 aggregation
- Format: biochemical
- applied-conditions: Aβ42 aggregation time course, reading M129

>  <compound>
C=C1CC[C@@H]2[C@](C)(CC[C@H]3O[C@H](C=C(C)C)C[C@@]23C)[C@@H]1Cc1c(OC)oc(CO)c(C)c1=O

>  <Th-T fluorescence, mean of three wells>
4.1254

$$$$
>  <compound>
C=C1CCC2C(C)(CCC=C(C)C)C(O)CCC2(C)C1Cc1c(OC)oc(CO)c(C(=O)OC)c1=O (centres unmarked)

>  <Th-T fluorescence, mean of three wells>
1.038

$$$$
>  <compound>
C=C1CC[C@H]2[C@]3(C)C[C@@H](C=C(C)C)O[C@H]3CC[C@]2(C)[C@@H]1Cc1c(OC)oc(CO)c(C)c1=O

>  <Th-T fluorescence, mean of three wells>
3.6361

$$$$
>  <compound>
C=C1CCC2C3(C)CC(C=C(C)C)OC3CCC2(C)C1Cc1c(OC)oc(C)c(C)c1=O (centres unmarked)

>  <Th-T fluorescence, mean of three wells>
3.806

$$$$
>  <compound>
C=C1CCC2C(C)(CCC=C(C)C)C(O)CCC2(C)C1Cc1c(OC)oc(C)c(C(=O)OC)c1=O (centres unmarked)

>  <Th-T fluorescence, mean of three wells>
1.701

$$$$
>  <compound>
C=C1CCC2C(C)(CCC=C(C)C)C(=O)CCC2(C)C1Cc1c(O)c(C)c(C)oc1=O (centres unmarked)

>  <Th-T fluorescence, mean of three wells>
2.196

$$$$
>  <compound>
C=C1CC[C@H]2[C@]3(C)C[C@H](C=C(C)C)O[C@H]3CC[C@]2(C)[C@@H]1Cc1c(OC)oc(CO)c(C)c1=O

>  <Th-T fluorescence, mean of three wells>
3.762

$$$$
>  <compound>
C=C1CC[C@H]2[C@]3(C)C[C@H](C=C(C)C)O[C@H]3CC[C@]2(C)[C@@H]1Cc1c(OC)oc(C)c(C)c1=O

>  <Th-T fluorescence, mean of three wells>
3.876

$$$$
>  <compound>
C=C1CCC2C(C)(CC(=O)C=C(C)C)C(O)CCC2(C)C1Cc1c(OC)oc(CO)c(C)c1=O (centres unmarked)

>  <Th-T fluorescence, mean of three wells>
3.627

$$$$
>  <compound>
C=C1CCC2C(C)(CCC=C(C)C)C(O)CCC2(C)C1Cc1c(OC)oc(C)c(C)c1=O (centres unmarked) [Compound 15, viridoxin A hydrolysate]

>  <Th-T fluorescence, mean of three wells>
3.297

$$$$
>  <compound>
C=C1CCC2C(C)(CC(=O)C=C(C)C)C(O)CCC2(C)C1Cc1c(OC)oc(C)c(C)c1=O (centres unmarked)

>  <Th-T fluorescence, mean of three wells>
3.564

$$$$
